Biological target: GST tagged LXRalpha LBD (ligand binding domain) (Homo sapiens, UniProt Q13133)
Sequence (Q13133 209-447 limits assumed): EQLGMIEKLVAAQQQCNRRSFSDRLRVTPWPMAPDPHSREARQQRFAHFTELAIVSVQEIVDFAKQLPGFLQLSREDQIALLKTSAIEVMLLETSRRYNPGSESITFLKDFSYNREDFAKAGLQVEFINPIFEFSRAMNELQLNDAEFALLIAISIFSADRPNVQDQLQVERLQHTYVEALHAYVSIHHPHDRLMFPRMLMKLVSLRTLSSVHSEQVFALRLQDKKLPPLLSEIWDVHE
Assay: LanthaScreen TR-FRET Liver X Receptor Coactivator Assay, LXR alpha-LBD
Details: Inflection Point (potency), co-activator recruitment, relative to reference T0901317; read-out: LXR alpha IP
From the text: […]
Classes based on EC50: low value: < 1000 nM; medium value: ≥ 1000 nM and < 2000 nM; high value: ≥ 2000 nM

Would you please look over these solved cases?
1. CN(C)C(=O)c1ccc(N2CCC(C3CCN(C(=O)C(O)(C4CC4)C(F)(F)F)CC3)CC2)cc1Cl (single isomer, unassigned) [Example A-9]    medium value
2. O=C(c1ccc(N2CCC(C3CCN(C(=O)[C@@](O)(c4ccccc4)C(F)(F)F)CC3)CC2)cc1Cl)N1CCCC1 (single isomer, unassigned) [Example E-19]    high value
3. COc1cccc(C2(C(=O)N3CCC(C4CCN(c5ccc(C(=O)N(C)C)c(Cl)c5)CC4)CC3)CCC2)c1 [Example A-93]    high value
4. CC(C)CC(O)(C(=O)N1CCC(C2CCN(c3ccc(C(=O)N(C)C)c(Cl)n3)CC2)CC1)C(F)(F)F (centres unmarked) [Example B-7]    medium value
5. CC(C)N(C)C(=O)c1ccc(N2CCC(C3CCN(C(=O)[C@](O)(c4ccccc4)C(F)(F)F)CC3)CC2)cc1Cl [Example E-33]    low value

Continue with the next compound.
(Q) Lab note: sort CC1CCCN1C(=O)c1ccc(N2CCC(C3CCN(C(=O)[C@](O)(c4ccccc4)C(F)(F)F)CC3)CC2)cc1Cl (some centres unmarked) [Example E-25] into the matching EC50 band.
(A) low value
